Experiment: Binding affinity to Bovicola ovis recombinant ecdysone receptor ligand binding domain after 3 hrs by fluorescence polarization assay
Threshold-based label: IC50 under 40 µM gives Y, IC50 not under 40 µM gives N.

[Q] IC50 strictly < 40 µM for this compound? C=C1C(C)=C(C#N)C(=O)N1c1cc(Cl)ccc1Cl
[A] Y

[Q] IC50 strictly < 40 µM for this compound? C=C1C(C)=C(C#N)C(=O)N1c1ccc(F)c([N+](=O)[O-])c1
[A] Y

[Q] IC50 strictly < 40 µM for this compound? C=C1C(CCCC)=C(C#N)C(=O)N1c1c(C)cc(C)cc1C
[A] Y

[Q] IC50 strictly < 40 µM for this compound? C=C1C(C)=C(C#N)C(=O)N1c1cc(C(C)(C)C)ccc1C(C)(C)C
[A] Y

[Q] IC50 strictly < 40 µM for this compound? C=C1C(CCCC)=C(C#N)C(=O)N1c1cc(OC)c(OC)c(OC)c1
[A] Y

[Q] IC50 strictly < 40 µM for this compound? C=C1C(CC(C)C)=C(C#N)C(=O)N1c1cc(Cl)c(Cl)cc1Cl
[A] Y

[Q] IC50 strictly < 40 µM for this compound? C=C1C(CCC)=C(C#N)C(=O)N1c1cc(Cl)ccc1Cl
[A] Y

[Q] IC50 strictly < 40 µM for this compound? C=C1C(C)=C(C#N)C(=O)N1c1c(C)cc(C)cc1C(F)(C(F)(F)F)C(F)(F)F
[A] N

[Q] IC50 strictly < 40 µM for this compound? C=C1C(C)=C(C#N)C(=O)N1c1ccc(N(C)C)cc1
[A] N

[Q] IC50 strictly < 40 µM for this compound? C=C1C(C)=C(C#N)C(=O)N1c1cc([N+](=O)[O-])ccc1OC
[A] N

[Q] IC50 strictly < 40 µM for this compound? COc1cc(OC)cc(N2C(=O)C(C#N)=C(C)/C2=C/C(C)C)c1
[A] N

[Q] IC50 strictly < 40 µM for this compound? C=C1C(C)=C(C#N)C(=O)N1c1ccc(NC(C)=O)cc1
[A] N

[Q] IC50 strictly < 40 µM for this compound? C=C1C(C)=C(C#N)C(=O)N1c1ccc(Cl)c2ccccc12
[A] Y

[Q] IC50 strictly < 40 µM for this compound? C=C1C(C)=C(C#N)C(=O)N1N1CCCCC1
[A] N

[Q] IC50 strictly < 40 µM for this compound? C=C1C(C)=C(C#N)C(=O)N1C1CCCC(C)C1C (stereo not drawn)
[A] N

[Q] IC50 strictly < 40 µM for this compound? C=C1C(CC)=C(C#N)C(=O)N1c1c(C)cccc1C(C)C
[A] N

[Q] IC50 strictly < 40 µM for this compound? C=C1C(C)=C(C#N)C(=O)N1c1ccccc1OCC
[A] N

[Q] IC50 strictly < 40 µM for this compound? C=C1C(C)=C(C(=O)c2ccccc2)C(=O)N1c1c(C(C)C)cccc1C(C)C
[A] N

[Q] IC50 strictly < 40 µM for this compound? C=C1C(CC)=C(C#N)C(=O)N1c1c(C)cccc1CC
[A] N

[Q] IC50 strictly < 40 µM for this compound? C=C1C(c2ccccc2)=C(C#N)C(=O)N1C1CCCCC1
[A] Y

[Q] IC50 strictly < 40 µM for this compound? C=C1C(C)=C(C#N)C(=O)N1c1cc(Cl)ccc1OC
[A] N

[Q] IC50 strictly < 40 µM for this compound? C=C1C(C)=C(C#N)C(=O)N1c1ncc(Cl)cc1Cl
[A] N

[Q] IC50 strictly < 40 µM for this compound? C=C1C(C)=C(C#N)C(=O)N1c1cc(Cl)cc(Cl)c1
[A] Y
